- Test system: Porcine atria myofibrils (atrial myosin ATPase)
- assay notes: Myofibril ATPase assay, porcine atria myofibrils
- Type: biochemical
- test settings: Y75 value (no ‡ mark); porcine atria myofibrils
- Protocol: Example 1. Myofibril ATPase Assay Myofibril ATPase assays are known in the art to be useful in evaluating small molecules for the treatment of HCM and other cardiac indications. Myosin ATPase activity is assessed by using a coupled reaction system, in which ADP generated by the myosin ATPase function is coupled to the disappearance of NADH through the pyruvate kinase/lactate dehydrogenase (PK-LDH) system. […]
experimental readout: Atrial EC25
Please don't drop the unit; write it after the number.

Please review the following examples before continuing.
>>> print(df.to_string())
                                   compound  experimental_readout      val
0  C[C@@H](NC(=O)Cc1c(C2CC2)c2cc(F)ccc2[nH]c1=O)c1ccc(C#N)cn1           Atrial EC25  1290 nM
1  Cc1nc(C#N)ncc1[C@H](C)NC(=O)Cc1c(C)c2cc(F)ccc2[nH]c1=O           Atrial EC25   120 nM
2  C[C@@H](NC(=O)Cc1cc2c(F)c(F)ccc2[nH]c1=O)c1ncc(F)cc1F           Atrial EC25   170 nM

Here's the next entry for you.
GET /value?item= O=C(Cc1cc2c(F)c(F)ccc2[nH]c1=O)N[C@@H]1COc2ncccc21 (single isomer, unassigned) &field=Atrial EC25 returns 420 nM

###

- target desc: Porcine ventricle myofibrils (ventricular myosin ATPase) (Sus scrofa, UniProt P79293)
- Construct: Myofibrils from porcine cardiac muscle was isolated from the left ventricle of Yucatan minipigs; tissue Exemplar Genetics; host or cells: left ventricle of Yucatan minipigs, myofibrils prepared in house
- Sequence (P79293 whole entry): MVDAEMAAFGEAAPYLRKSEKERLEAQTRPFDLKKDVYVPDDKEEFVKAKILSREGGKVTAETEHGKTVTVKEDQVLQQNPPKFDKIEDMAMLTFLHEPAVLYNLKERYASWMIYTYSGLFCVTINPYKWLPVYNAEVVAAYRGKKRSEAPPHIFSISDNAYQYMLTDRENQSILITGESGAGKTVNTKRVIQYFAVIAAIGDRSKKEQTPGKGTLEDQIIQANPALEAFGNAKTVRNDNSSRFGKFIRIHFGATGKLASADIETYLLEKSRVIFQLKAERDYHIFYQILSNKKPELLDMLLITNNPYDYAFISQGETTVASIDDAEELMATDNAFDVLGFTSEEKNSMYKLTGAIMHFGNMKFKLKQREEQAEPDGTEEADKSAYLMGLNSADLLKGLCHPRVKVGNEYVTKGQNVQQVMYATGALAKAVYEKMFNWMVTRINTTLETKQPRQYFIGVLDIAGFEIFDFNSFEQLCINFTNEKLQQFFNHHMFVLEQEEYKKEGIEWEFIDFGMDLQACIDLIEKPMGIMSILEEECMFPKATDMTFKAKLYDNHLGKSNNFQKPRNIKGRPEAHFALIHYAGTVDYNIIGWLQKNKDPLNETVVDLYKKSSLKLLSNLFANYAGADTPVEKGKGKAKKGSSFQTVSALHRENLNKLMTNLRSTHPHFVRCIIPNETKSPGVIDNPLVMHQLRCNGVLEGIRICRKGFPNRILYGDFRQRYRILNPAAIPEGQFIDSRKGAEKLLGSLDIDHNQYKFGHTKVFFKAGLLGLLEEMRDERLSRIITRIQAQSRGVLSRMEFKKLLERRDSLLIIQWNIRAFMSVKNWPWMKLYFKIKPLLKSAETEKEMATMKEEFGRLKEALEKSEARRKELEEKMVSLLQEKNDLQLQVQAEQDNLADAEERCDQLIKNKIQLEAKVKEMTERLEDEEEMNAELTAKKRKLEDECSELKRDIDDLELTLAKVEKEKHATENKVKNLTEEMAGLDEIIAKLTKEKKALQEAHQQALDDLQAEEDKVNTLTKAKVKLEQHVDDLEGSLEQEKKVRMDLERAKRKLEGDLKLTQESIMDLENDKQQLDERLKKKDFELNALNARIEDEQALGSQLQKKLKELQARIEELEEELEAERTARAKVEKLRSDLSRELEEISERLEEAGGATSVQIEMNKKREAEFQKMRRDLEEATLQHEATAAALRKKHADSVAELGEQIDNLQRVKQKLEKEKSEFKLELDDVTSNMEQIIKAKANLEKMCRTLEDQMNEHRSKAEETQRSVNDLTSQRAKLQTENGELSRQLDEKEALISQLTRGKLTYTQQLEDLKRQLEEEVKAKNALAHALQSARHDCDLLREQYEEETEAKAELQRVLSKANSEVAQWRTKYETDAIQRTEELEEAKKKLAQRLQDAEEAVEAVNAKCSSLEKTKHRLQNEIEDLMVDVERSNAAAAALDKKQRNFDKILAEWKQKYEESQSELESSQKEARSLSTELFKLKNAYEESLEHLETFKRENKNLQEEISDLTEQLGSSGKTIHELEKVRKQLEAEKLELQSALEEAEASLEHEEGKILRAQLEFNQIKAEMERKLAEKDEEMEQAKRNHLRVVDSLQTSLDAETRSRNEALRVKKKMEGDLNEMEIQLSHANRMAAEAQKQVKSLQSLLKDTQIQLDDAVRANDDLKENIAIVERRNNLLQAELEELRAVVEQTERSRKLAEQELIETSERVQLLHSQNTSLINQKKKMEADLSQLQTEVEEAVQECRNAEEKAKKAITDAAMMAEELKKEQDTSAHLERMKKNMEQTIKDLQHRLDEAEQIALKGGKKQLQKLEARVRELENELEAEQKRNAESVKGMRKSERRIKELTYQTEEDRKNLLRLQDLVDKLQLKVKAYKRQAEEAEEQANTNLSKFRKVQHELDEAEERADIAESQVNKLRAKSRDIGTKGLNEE
- assay notes: Myofibril ATPase assay, porcine ventricle myofibrils
- Format: biochemical, porcine (Yucatan minipigs)
- test settings: Y75 value (no ‡ mark); porcine ventricle myofibrils
experimental readout: Ventricular EC25 (µM)
Record the value in µM, omitting the unit from your answer.

Please review the following examples before continuing.
>>> print(df.to_string())
                                   compound  experimental_readout     val
0  N#Cc1ccc([C@H](CO)NC(=O)Cc2c(C3CC3)c3cc(F)ccc3[nH]c2=O)c(F)c1 [compound 76]      Ventricular EC25  100.00
1  Cc1c(CC(=O)N[C@H](C)c2ccc(C#N)nn2)c(=O)[nH]c2ccc(F)c(C3CC3)c12 (single isomer, unassigned) [compound 2057]      Ventricular EC25    0.94
2  Cc1cc(C#N)nnc1[C@@H](C)NC(=O)Cc1c(C)c2c(F)c(F)ccc2[nH]c1=O [compound 1135]      Ventricular EC25    5.94
3  C[C@@H](NC(=O)C(F)(F)c1cc2cc(F)ccc2[nH]c1=O)c1cccc(C#N)n1 (single isomer, unassigned) [compound 2581]      Ventricular EC25  100.00
4  Cc1nc(C#N)cnc1[C@@H](C)NC(=O)Cc1c(C)c2c(C#N)c(F)ccc2[nH]c1=O (single isomer, unassigned) [compound 1]      Ventricular EC25    0.14
5  Cc1c(CC(=O)N[C@H](C)c2ccc(C#N)cc2F)c(=O)[nH]c2ccc(F)c(C(F)(F)F)c12 [compound 37]      Ventricular EC25    0.05

Here's the next entry for you.
GET /value?item= Cc1c(CC(=O)N[C@H](C)c2ccc(F)cn2)c(=O)[nH]c2cccc(F)c12 [compound 43] &field=Ventricular EC25 returns 100.00

###

Parameter Skeletal EC25: see the listing below.
- Tested on: Rabbit Psoas myofibrils (skeletal myosin ATPase)
- assay notes: Myofibril ATPase assay, rabbit psoas (skeletal) myofibrils
- Type: biochemical
- test settings: rabbit psoas myofibrils; Y75 value
Please don't drop the unit; write it after the number.

GET /value?item= Cc1c([C@@H](C)C(=O)N[C@@H](C)c2ccc(F)cc2F)c(=O)[nH]c2ccnc(Cl)c12 (single isomer, unassigned) [compound 365] &field=Skeletal EC25 returns 0.03 µM

GET /value?item= Cc1nccc2[nH]c(=O)c(C(F)(F)C(=O)N[C@H](C)c3ccc(C#N)cc3F)c(C)c12 (single isomer, unassigned) [compound 3511] &field=Skeletal EC25 returns 0.26 µM

GET /value?item= Cc1nccc2[nH]c(=O)c(CC(=O)N[C@H]3CNc4cc(F)cc(F)c43)c(C)c12 (single isomer, unassigned) [compound 182] &field=Skeletal EC25 returns 1.76 µM

GET /value?item= C[C@H](NC(=O)Cc1c(Cl)c2cnccc2[nH]c1=O)c1ccc(C#N)cn1 [compound 454] &field=Skeletal EC25 returns 4.25 µM

GET /value?item= Cc1nccc2[nH]c(=O)c(CC(=O)N[C@@H](C)c3cccnc3O)c(C)c12 (single isomer, unassigned) [compound 307] &field=Skeletal EC25 returns 100.00 µM

GET /value?item= Cc1cc([C@@H](C)NC(=O)Cc2cc3c(C#N)nccc3[nH]c2=O)ncc1F [compound 470] &field=Skeletal EC25 returns 9.89 µM

GET /value?item= Cc1nccc2[nH]c(=O)c(CC(=O)N[C@H](C)c3ncc(C#N)cn3)c(C)c12 [compound 482] &field=Skeletal EC25 returns 100.00 µM

###

- Tested on: Rabbit Psoas myofibrils (skeletal myosin ATPase)
- assay notes: Myofibril ATPase assay, rabbit psoas (skeletal) myofibrils
- Format: biochemical
- test settings: rabbit psoas myofibrils; Y75 value
Just a reminder that ties go to No: only Skeletal EC25 strictly below 2 µM counts as Yes.

Consider the following illustrative entries.
In [3]: df
Out[3]:
                                   compound  class_assignment
0  Cc1nccc2[nH]c(=O)c(CC(=O)N[C@H](C)c3cccc(O)n3)c(C)c12 (single isomer, unassigned) [compound 297]                No
1  C[C@@H](NC(=O)Cc1cc2c(C#N)nccc2[nH]c1=O)c1ccc(F)cn1 [compound 474]                No
2  C[C@H](NC(=O)Cc1cc2nc(F)ccc2[nH]c1=O)c1ccc(F)cc1F [compound 392]               Yes
3  Cc1nccc2[nH]c(=O)c(CC(=O)N[C@@H](C)c3ccc(F)cc3F)c(C(F)(F)F)c12 [compound 430]               Yes

Ask: A record lists Cc1c(C(C)C(=O)N[C@@H](C)c2ccc(F)cc2F)c(=O)[nH]c2ccnc(C#N)c12 (some centres unmarked) [compound 363] . Is its Skeletal EC25 below 2 µM?
Reply: Yes

Ask: A record lists Cc1nccc2[nH]c(=O)c(CC(=O)N[C@@H](c3ccc(F)cc3F)C(C)(C)O)c(C)c12 (single isomer, unassigned) [compound 271] . Is its Skeletal EC25 below 2 µM?
Reply: No

Ask: A record lists Cc1c(CC(=O)N[C@H]2c3c(F)cc(F)cc3OC2(C)C)c(=O)[nH]c2ccnc(C#N)c12 (single isomer, unassigned) [compound 187] . Is its Skeletal EC25 below 2 µM?
Reply: Yes

Ask: A record lists Cc1nccc2[nH]c(=O)c(CC(=O)N[C@H]3CCc4cc(C#N)cnc43)c(C)c12 (single isomer, unassigned) [compound 234] . Is its Skeletal EC25 below 2 µM?
Reply: No

Ask: A record lists Cc1nccc2[nH]c(=O)c(CC(=O)Nc3c[nH]c4cc(F)cc(F)c34)c(C)c12 [compound 228] . Is its Skeletal EC25 below 2 µM?
Reply: No

Ask: A record lists Cc1c(CC(=O)N[C@@H](C)c2ccc(F)cc2F)c(=O)[nH]c2ccnc(N3CCCC3)c12 [compound 346] . Is its Skeletal EC25 below 2 µM?
Reply: No

Ask: A record lists Cc1c(CC(=O)N[C@H]2COc3cccnc32)c(=O)[nH]c2ccnc(C#N)c12 (single isomer, unassigned) [compound 213] . Is its Skeletal EC25 below 2 µM?
Reply: No

Ask: A record lists Cc1ccc([C@@H](C)NC(=O)Cc2c(C)c3c(C)nccc3[nH]c2=O)cc1 (single isomer, unassigned) [compound 301] . Is its Skeletal EC25 below 2 µM?
Reply: No

Ask: A record lists Cc1c(CC(=O)N[C@@H](C)c2ncc(C#N)cc2F)c(=O)[nH]c2ccc(OC(F)(F)F)nc12 [compound 456] . Is its Skeletal EC25 below 2 µM?
Reply: Yes

Ask: A record lists Cc1cc(F)ccc1[C@H](C)NC(=O)Cc1c(C)c2c(C)nccc2[nH]c1=O [compound 407] . Is its Skeletal EC25 below 2 µM?
Reply: Yes

###

- target desc: Porcine ventricle myofibrils (ventricular myosin ATPase) (Sus scrofa)
- Construct: Myofibrils from porcine cardiac muscle was isolated from the left ventricle of Yucatan minipigs; tissue Exemplar Genetics; host or cells: left ventricle of Yucatan minipigs, myofibrils prepared in house
- assay notes: Myofibril ATPase assay, porcine ventricle myofibrils
- Assay type: biochemical, porcine (Yucatan minipigs)
- test settings: porcine ventricle myofibrils; Y75 value
- Method: Example 1. Myofibril ATPase Assay Myofibril ATPase assays are known in the art to be useful in evaluating small molecules for the treatment of HCM and other cardiac indications. Myosin ATPase activity is assessed by using a coupled reaction system, in which ADP generated by the myosin ATPase function is coupled to the disappearance of NADH through the pyruvate kinase/lactate dehydrogenase (PK-LDH) system. […]
experimental readout: Ventricular EC25 (µM)
Record the value in µM, omitting the unit from your answer.

Please review the following examples before continuing.
In [3]: df
Out[3]:
                                   compound  experimental_readout     val
0  CCNc1nccc2[nH]c(=O)c(CC(=O)N[C@@H](C)c3ccc(F)cc3F)c(C)c12      Ventricular EC25    0.97
1  Cc1nccc2[nH]c(=O)c([C@H](C)C(=O)N[C@@H](C)c3ccc(F)cc3F)cc12 (single isomer, unassigned)      Ventricular EC25  100.00
2  Cc1c(CC(=O)N[C@H](C)c2ccc(F)cc2F)c(=O)[nH]c2ccnc(C(F)(F)F)c12      Ventricular EC25  100.00

Here's the next entry for you.
GET /value?item= `Cc1c(CC(=O)N[C@H](C)c2ccc(C#N)cc2F)c(=O)[nH]c2cnnc(C#N)c12` &field=Ventricular EC25 returns 100.00
